Cited source: patent US7834019B2

# assayed.target: Weel kinase (Homo sapiens, UniProt P30291)
# Sequence (P30291 whole entry): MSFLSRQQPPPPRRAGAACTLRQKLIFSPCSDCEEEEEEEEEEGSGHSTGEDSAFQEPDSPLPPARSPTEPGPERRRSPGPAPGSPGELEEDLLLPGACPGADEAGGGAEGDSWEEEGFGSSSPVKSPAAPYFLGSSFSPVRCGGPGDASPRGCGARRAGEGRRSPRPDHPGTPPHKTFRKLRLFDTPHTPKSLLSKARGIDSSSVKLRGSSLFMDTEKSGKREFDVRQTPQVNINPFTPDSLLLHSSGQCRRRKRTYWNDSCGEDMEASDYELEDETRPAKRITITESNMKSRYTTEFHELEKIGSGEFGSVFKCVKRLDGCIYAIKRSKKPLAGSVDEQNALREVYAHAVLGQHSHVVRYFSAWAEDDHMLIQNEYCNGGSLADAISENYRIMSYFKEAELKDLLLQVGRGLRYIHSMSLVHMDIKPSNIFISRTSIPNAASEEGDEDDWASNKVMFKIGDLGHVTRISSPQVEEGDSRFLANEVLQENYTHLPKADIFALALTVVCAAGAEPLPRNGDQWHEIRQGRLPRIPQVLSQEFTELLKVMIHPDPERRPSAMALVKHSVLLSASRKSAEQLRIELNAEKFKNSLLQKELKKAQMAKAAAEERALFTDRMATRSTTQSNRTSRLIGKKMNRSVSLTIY
# run.description: Weel kinase-inhibitory effect (33P-ATP filter assay with purified GST-tagged Weel kinase)
# run.conditions: Poly(Lys,Tyr) substrate, 10 μM ATP, 30° C. for 30 minutes
Collected IC50 values appear next to each entry.
metric: IC50

> print(dat)
                                    compound                            assayed.target  result
 1  C=CCn1c(=O)c2cnc(Nc3ccc(N4CCN(C)CC4)cc3)nc2n1-c1cccc(CN(C)C)c1 [Example 26]  Weel kinase (Homo sapiens, UniProt P30291)   18 nM
 2  C#CCn1c(=O)c2cnc(Nc3ccc(N4CCN(C)CC4)cc3)nc2n1-c1cccc(C(C)(C)O)n1 [Example 113]  Weel kinase (Homo sapiens, UniProt P30291)  6.3 nM
 3  Cc1cc(Nc2ncc3c(=O)n(Cc4ccccc4)n(-c4ccccc4)c3n2)ccc1N1CCN(C)CC1 [Example 111]  Weel kinase (Homo sapiens, UniProt P30291)   24 nM
 4  C=CCn1c(=O)c2cnc(Nc3ccc(N4CCN(C)CC4)c(CO)c3)nc2n1-c1ccccn1 [Example 29]  Weel kinase (Homo sapiens, UniProt P30291)   20 nM
 5  C=CCn1c(=O)c2cnc(Nc3ccc(N4CCN(C)CC4)cc3)nc2n1-c1cccc(C(=O)N(C)C)c1 [Example 1]  Weel kinase (Homo sapiens, UniProt P30291)    7 nM
 6  C=CCn1c(=O)c2cnc(Nc3ccc(N4CCN(C)CC4)cc3)nc2n1-c1cccc(N2CCN(C)C2=O)n1 [Example 148]  Weel kinase (Homo sapiens, UniProt P30291)   17 nM
 7  CC(C)n1c(=O)c2cnc(Nc3ccc(C4CCN(C)CC4)cc3)nc2n1-c1cccc(C(C)(C)O)n1 [Example 147]  Weel kinase (Homo sapiens, UniProt P30291)   24 nM
 8  C=CCn1c(=O)c2cnc(Nc3ccc(N4CCN(C)CC4)c(C)c3)nc2n1-c1cccc(OCCO)n1 [Example 98]  Weel kinase (Homo sapiens, UniProt P30291)   14 nM
 9  C=CCn1c(=O)c2cnc(Nc3ccc(N4CCN(C)CC4)cc3)nc2n1-c1cccc(CN(C)S(C)(=O)=O)n1 [Example 99]  Weel kinase (Homo sapiens, UniProt P30291)  8.8 nM
10  C=CCn1c(=O)c2cnc(Nc3ccc(N4CCN(C)CC4)c(CO)c3)nc2n1-c1ccsc1 [Example 3]  Weel kinase (Homo sapiens, UniProt P30291)  7.6 nM
11  C=CCn1c(=O)c2cnc(Nc3ccc(N4CCN(C)CC4)c(C)c3)nc2n1-c1cccc(CN(C)C)n1 [Example 52]  Weel kinase (Homo sapiens, UniProt P30291)   12 nM
